System: K24384-001-R-PDC complex spheroids, viability;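 further: spheroids exposed to compounds for seven days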
Test details: Anticancer human tumor K24384-001-R-PDC patient-derived pancreatic adenocarcinoma cell line growth inhibition [GQUAD]
Measurement setup: curve of first compound; second compound 0.1 µM
List of pIC50 values.
Notebook: values listed as pIC50 are -log10 of the concentration (mol/L).

CC1COCCN1c1cc(C2(O)CC3CCC(C2)O3)c2cnn(-c3ccn[nH]3)c2n1 (stereo not drawn) + CN(C)c1ccc(Nc2c3ccc(NC(=O)CCN4CCCC4)cc3nc3cc(NC(=O)CCN4CCCC4)ccc23)cc1	7.13
C=CCn1c(=O)c2cnc(Nc3ccc(N4CCN(C)CC4)cc3)nc2n1-c1cccc(C(C)(C)O)n1 + Cc1[nH]c2ccc(F)cc2c1-c1nc2c3cccnc3c3ncccc3c2[nH]1	6.55

Query compound follows.
## Input Give pIC50 only, for C#Cc1c(F)ccc2cc(O)cc(-c3ncc4c(N5CC6CCC(C5)N6)nc(OCC56CCCN5CC(F)C6)nc4c3F)c12 (stereo not drawn) + CN(C)c1ccc(Nc2c3ccc(NC(=O)CCN4CCCC4)cc3nc3cc(NC(=O)CCN4CCCC4)ccc23)cc1 , using K24384-001-R-PDC complex spheroids, viability data.
## Output 5.77
